- target.entity: AMPA receptors
- assay.text: competitive binding to AMPA receptors ([3H]AMPA)
- condition.parameters: [3H]AMPA 30 nM, rat cerebral cortex membrane, 100 mM KSCN, 0° C., 30 minutes
measurement.kind: IC50 (nM)
Supply the numeric figure in nM, leaving out any unit text.

compound.structure.string	measurement.kind	unit.spec	data.value
O=c1[nH]c2cc(-n3ccnc3)c([N+](=O)[O-])cc2[nH]c1=O	IC50	nM	280

Read the next record carefully.
Query string: Quote AMPA receptors IC50 for entry O=c1ccn(-c2cc3[nH]c(=O)c(=O)[nH]c3cc2[N+](=O)[O-])cc1 .
Result string: 100

====

- target.entity: glycine binding site of NMDA receptors (Rattus norvegicus, UniProt P35439)
- Construct: the cerebral cortex of an Slc-Wistar rat (250 to 300 g in weight) was homogenized
- assay.text: competitive binding to a glycine binding site of NMDA receptors ([3H]glycine)
- condition.parameters: [3H]glycine 100 nM, rat cerebral cortex membrane, 0° C., 10 minutes
measurement.kind: pIC50
When answering, recall that pIC50 equals minus log10 of the concentration in mol/L, and write that number alone.

molecule	pIC50
O=c1[nH]c2cc(-n3ccnc3)c([N+](=O)[O-])cc2[nH]c1=O [YM900]	4.17

We next turn to a different molecule, shown below.
Query string: Supply measured pIC50 of O=c1ccn(-c2cc3[nH]c(=O)c(=O)[nH]c3cc2[N+](=O)[O-])cc1 [Ia] in your reply.
Result string: 5.18
